Molecular target: T1, Boi2, P39969
T1 sequence (P39969 32-116, looked up): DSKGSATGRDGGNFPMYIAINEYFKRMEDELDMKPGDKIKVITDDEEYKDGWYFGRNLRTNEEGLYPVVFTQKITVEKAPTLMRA
Test: SPOT array
Details: median of control spots 1161
Listed here are binders together with their documented SPOT intensity.

input: So what does the record say about SPOT intensity for NILKRRPLKLEAPSK ?
output: 3

input: Next binder up: LRIKRKPVQTFFEFI
output: 1
